Recorded values, source PubChem BioAssay (NCI).

# Tested on: HT29 colon
# TEST PROTOCOL: NCI-60 one-dose screen, 48 h (100 = growth as untreated, 0 = no growth, -100 = all killed)
# EXPERIMENTAL PARAMETERS: 10 µM unless noted
Compounds without any hit were thinned out: in the full panel of roughly 83,000, 20% have a hit.
RECORDED METRIC: growth (%)
Give just the numeric value; % need not be written.

Some molecules with known growth results, for comparison:
[[record]]
smi = "O=C1C(Cl)=C(Nc2ccccc2)C(=O)c2ccccc21"
recorded_metric = "growth"
endpoint_value = -75.1

[[record]]
smi = "O=C(/C=C/c1ccccc1)N(C1CCCCC1)C1CCCCC1"
recorded_metric = "growth"
endpoint_value = 68.6

[[record]]
smi = "O=C(Nc1ccccc1O)c1ccc(CNc2ccnc(C(F)(F)F)c2)cc1"
recorded_metric = "growth"
endpoint_value = 75.8

[[record]]
smi = "CCOC(=O)c1cn2ncnc(Oc3ccc(NC(=O)NC4CC4)c(Cl)c3)c2c1C"
recorded_metric = "growth"
endpoint_value = 95.1

[[record]]
smi = "CCOc1ncc([N+](=O)[O-])c(OCC)n1"
recorded_metric = "growth"
endpoint_value = 121

[[record]]
smi = "COCC(=O)Oc1cc(-c2ccc(C)cc2C)c(OC(=O)COC)c(-c2ccc(C)cc2C)c1"
recorded_metric = "growth"
endpoint_value = 34.3


molecule `CN1C(=O)/C(=C/c2ccc(C(=O)Nc3ncc(Cc4cc(Cl)ccc4Cl)s3)cc2)SC1=S` , growth observed: 64

* * *

# Tested on: OVCAR-3 ovarian
# TEST PROTOCOL: NCI-60 one-dose screen, 48 h (100 = growth as untreated, 0 = no growth, -100 = all killed)
# EXPERIMENTAL PARAMETERS: 10 µM unless noted
# Description: Growth inhibition of the OVCAR-3 human tumor cell line is measured as a screen for anti-cancer activity. Cells are grown in 96 well plates and exposed to the test compound for 48 hours. Compounds are tested at a single concentration, which is 10^-5 M for most compounds. The reported endpoint is percent growth (GI% or GIPRCNT), where numbers from 0 - 100% represent growth inhibition, and numbers from -100% - 0 represent cell death. For example, a value of 40 represents 60% growth inhibition. […]
About 83,000 compounds went through this panel and 20% of them were active in at least one assay; those are over-represented in the sample as a whole. The source made the active and inactive calls. Rule for the calls: active = growth percent below 10; inactive = the rest.
RECORDED METRIC: growth

[[record]]
molecule = "N#Cc1nn(-c2cc(=O)[nH]c3ccc(Br)cc23)c(N)c1C#N"
endpoint_value = "103% (inactive)"


molecule `Nc1cc(Br)cc2c1[nH]c(=O)c1ccccc12` , growth observed: 94.4% (inactive)

molecule `CS(=O)(=O)c1ccc(-c2nc3ccccc3n2CC(=O)N/N=C/c2ccccc2)cc1` , growth observed: 105% (inactive)

molecule `CCN(CCNc1ccc(C)c2sc3cc(Cl)ccc3c(=O)c12)CC(C)(C)O` , growth observed: 91.7% (inactive)

molecule CNC(=O)NCC1OC(n2cnc3c(NC(=O)Nc4ccccc4)ncnc32)C2OC(=O)CC12 (centres undefined) , growth observed: 91.7% (inactive)

molecule CCOC(=O)C1=C(c2ccccc2)N=C2N(c3ccccc3)N=C(C(C)=O)N2C1c1ccc(F)cc1 (centres undefined) , growth observed: 105% (inactive)

molecule `CN1C(=O)/C(=C/c2ccc(C(=O)Nc3ncc(Cc4cc(Cl)ccc4Cl)s3)cc2)SC1=S` , growth observed: 80.1% (inactive)

molecule `COC(=O)c1sccc1-c1cc(O)c(C(=O)Nc2ccccc2)s1` , growth observed: 96.2% (inactive)

molecule COC12C=C/C(=C(/C(=O)OCc3csc(SC)n3)C(=O)CCCCCCCCC3(OC)C=C/C(=C(/C(=O)OCc4cnc(SC)s4)C(=O)CCCCCCCC1)O3)O2 (centres undefined) , growth observed: 21.5% (inactive)

* * *

# Test system: UACC-62 melanoma
# TEST PROTOCOL: NCI-60 one-dose screen, 48 h (100 = growth as untreated, 0 = no growth, -100 = all killed)
# EXPERIMENTAL PARAMETERS: 10 µM unless noted
The panel holds about 83,000 compounds, 20% with a hit somewhere; the sample as a whole holds those more often.
Mark 1.0 only for growth values smaller than 80%; exact matches and larger values are 0.0.

As a guide, the following entries are already answered.
[[record]]
compound = "COc1ccc(C2[C@@H](c3ccccc3)C(=O)N2c2cc(OC)c(OC)c(OC)c2)cc1F (stereo not given in full)"
class_label = 1.0

[[record]]
compound = "c1ccc(-c2ccc3c(c2)C2(CCNCC2)CN3)cc1"
class_label = 0.0

[[record]]
compound = "O=C(/C=C/C12c3ccccc3C(c3ccccc31)C1C(=O)NC(=O)C12)c1ccc(Cl)cc1Cl (stereo not given)"
class_label = 1.0

[[record]]
compound = "CCN(CC)C(=O)C1=C(C)NC(=O)NC1c1ccc2c(c1)OCO2 (stereo not given)"
class_label = 0.0

[[record]]
compound = "COc1cccc(CNc2c3ccccc3nc3ccccc23)c1OC"
class_label = 1.0

[[record]]
compound = "CC/C(=C(\\c1ccc(Cl)cc1)c1ccc(OCCN2CCCCC2)cc1)c1ccc(O)cc1"
class_label = 1.0

[[record]]
compound = "Ic1ccc(Nc2nc3nonc3nc2Nc2ccc(I)cc2)cc1"
class_label = 1.0

[[record]]
compound = "COC(=O)c1nc(-c2ccccc2)oc1S(=O)(=O)N1CCCC(C)C1 (stereo not given)"
class_label = 0.0


For the next question, use this compound.
[Q] Bench note: check whether `CC(=O)c1sc(-c2ccc(F)cc2)cc1O` shows growth below 80%
[A] 0.0

* * *

# Test system: OVCAR-3 ovarian
# TEST PROTOCOL: NCI-60 one-dose screen, 48 h (100 = growth as untreated, 0 = no growth, -100 = all killed)
# EXPERIMENTAL PARAMETERS: 10 µM unless noted
This is part of a sample that, as a whole, favours compounds with a hit. Of some 83,000 tested, about 20% had one in any assay.
Mark T only for growth values smaller than 90%; exact matches and larger values are F.

As a guide, the following entries are already answered.
[[record]]
compound = "c1ccc(-c2ccc3c(c2)C2(CCNCC2)CN3)cc1"
class_label = "T"

[[record]]
compound = "N#Cc1ccccc1-c1ccc(CN2C(=O)S/C(=C\\c3ccc(Br)cc3)C2=O)cc1"
class_label = "F"


[Q] Bench note: check whether `Nc1nc(N(Cc2ccccc2)c2ccccc2)c2cn[nH]c2n1` shows growth below 90%
[A] T

[Q] Bench note: check whether C=C(C)[C@@H]1CC[C@]2(COC3CCCCO3)CC[C@]3(C)[C@H](CC[C@@H]4[C@@]5(C)C=C(C=O)C(=O)C(C)(C)[C@@H]5CC[C@]43C)[C@@H]12 (some centres undefined) shows growth below 90%
[A] T

[Q] Bench note: check whether COc1ccc2c(c1)CC[C@@H]1[C@@H]2CC[C@]2(C)C3C(=CC(COC(C)=O)C4C(=O)N(c5ccc(Cl)cc5)C(=O)C43)C[C@@H]12 (some centres undefined) shows growth below 90%
[A] F

[Q] Bench note: check whether `CCn1cc(Cc2cc(C(=O)Nc3cc4cc(OC)c(OC)cc4c(C)n3)ccc2Cl)cn1` shows growth below 90%
[A] T

[Q] Bench note: check whether `CN(C)CCn1c(=O)c2ccccc2n2nc3ccccc3c12` shows growth below 90%
[A] F

[Q] Bench note: check whether `CCOc1ccc(/C=C/C(=O)c2cccc(OCCCOc3cccc(C(=O)/C=C/c4ccc(OCC)cc4)c3)c2)cc1` shows growth below 90%
[A] T

[Q] Bench note: check whether CCN(CC)CCCC(Cc1ccccc1)Nc1c2ccc(Cl)cc2nc2ccc(OC)cc12 (centres undefined) shows growth below 90%
[A] T

* * *

# Test system: SK-OV-3 ovarian
# TEST PROTOCOL: NCI-60 one-dose screen, 48 h
# EXPERIMENTAL PARAMETERS: 10 µM unless noted
This is part of a sample that, as a whole, favours compounds with a hit. Of some 83,000 tested, about 20% had one in any assay. Activity calls are given as the source filed them. Rule for the calls: active = growth percent below 10; inactive = the rest.
Response enum: active, inactive

As a guide, the following entries are already answered.
[[record]]
compound = "Cc1nc2sc(C(=O)Nc3cccc(Cl)c3C)c(N)c2cc1C(=O)/C=C/c1ccccc1"
class_label = "inactive"

[[record]]
compound = "CN(C)CCCC1(c2ccc(F)cc2)OCc2cc(-c3csc4ccccc34)ccc21 (stereo not given)"
class_label = "inactive"

[[record]]
compound = "C#CCOc1ccc2nc(CCl)c(Cl)c(Nc3cccc(C(F)(F)F)c3)c2c1"
class_label = "inactive"

[[record]]
compound = "O=c1c2ccccc2n(C[C@H]2CO2)c2ccccc12"
class_label = "active"

[[record]]
compound = "CC(C)=CC(=O)N[C@H]1CC[C@]2(C)C3CC[C@]4(C)C(C(C)N(C)C)=CCC4C3CCC2[C@H]1O (stereo not given in full)"
class_label = "inactive"

[[record]]
compound = "CCN(CC)c1ccc(-c2cc(-c3cc(OC)c(OC)c(OC)c3)nc(N3CCC(O)CC3)c2C#N)cc1"
class_label = "active"

[[record]]
compound = "CSc1nc2ccc(C)cc2cc1/C=C1/C=C(c2ccccc2)NC1=O"
class_label = "inactive"

[[record]]
compound = "COc1ccc(N/N=C/c2cn(-c3ccc(C(=O)O)cc3)nc2-c2cc3ccccc3oc2=O)cc1"
class_label = "inactive"


[Q] Returns: the outcome recorded for `Brc1ccc(Nc2nc(Nc3cnc4ccccc4c3)c3[nH]cnc3n2)cc1` in this assay.
[A] inactive

[Q] Returns: the outcome recorded for CCCC(=O)NC(c1ccc2c(c1)OCO2)c1cc(Cl)c2cccnc2c1O (stereo not given) in this assay.
[A] inactive

[Q] Returns: the outcome recorded for `CCOC(=O)C#Cc1c(C(=O)OCC)nnn1[C@@H]1O[C@H](COC)[C@@H](OC)[C@H]1OC` in this assay.
[A] inactive

[Q] Returns: the outcome recorded for `O=C1C=C(SCCO)C(=O)c2ccccc21` in this assay.
[A] inactive

[Q] Returns: the outcome recorded for `O=C(/C=C/c1cn(-c2ccccc2)nc1-c1ccccc1)CCC(=O)NO` in this assay.
[A] inactive

[Q] Returns: the outcome recorded for `COc1ccc(C/C(C)=C(\c2ccc(Cl)cc2)c2ccc(OCCN3CCCC3)cc2)cc1` in this assay.
[A] inactive

[Q] Returns: the outcome recorded for `Cn1c(C#N)ccc1-c1ccc(F)c(NC(=O)c2ccc(F)cc2)c1` in this assay.
[A] inactive

[Q] Returns: the outcome recorded for `CCCOC(=O)Nc1nc2ccc(SCC)cc2s1` in this assay.
[A] inactive

[Q] Returns: the outcome recorded for `CN(C)CCCNC(=O)c1cncnc1Nc1ccc2c(ccn2Cc2cccc(F)c2)c1` in this assay.
[A] inactive

[Q] Returns: the outcome recorded for `COc1ccc(-c2nc(SCC(=O)Nc3nc4ccc(C)cc4s3)[nH]c(=O)c2C#N)cc1OC` in this assay.
[A] inactive

[Q] Returns: the outcome recorded for `O=C(C1=Cc2cc3ccccc3n2Cc2cnnn21)c1ccc(F)cc1` in this assay.
[A] inactive

[Q] Returns: the outcome recorded for COC12C=C/C(=C(/C(=O)OCc3csc(SC)n3)C(=O)CCCCCCCCC3(OC)C=C/C(=C(/C(=O)OCc4cnc(SC)s4)C(=O)CCCCCCCC1)O3)O2 (stereo not given) in this assay.
[A] inactive
